The reported measurements were obtained from PubChem BioAssay (NCI).

System: HL-60(TB) leukemia
protocol-summary: NCI-60 one-dose screen, 48 h (100 = growth as untreated, 0 = no growth, -100 = all killed)
experimental-context: 10 µM unless noted
This is part of a sample that, as a whole, favours compounds with a hit. Of some 83,000 tested, about 20% had one in any assay. Calls of active or inactive are those of the source. Rule for the calls: active = growth percent below 10; inactive = the rest.
outcome-measure: growth

Recorded growth, per entry:
smiles	target	growth
COc1cccc(Nc2nccc(Nc3ccc4[nH]ncc4c3)n2)c1	HL-60(TB) leukemia	-62.3% (active)
COc1cc(NCc2ccccc2O)c2ncccc2c1	HL-60(TB) leukemia	51% (inactive)
Cc1ccc(N2C3c4ccccc4N(S(=O)(=O)c4ccc(C)cc4)C2c2ccccc2N3S(=O)(=O)c2ccc(C)cc2)cc1	HL-60(TB) leukemia	80.5% (inactive)

Could you share which growth value was measured for CC[C@]12C=CCN3CC[C@@]4(c5ccc(OC)cc5N(C)[C@H]4[C@@](O)(C(=O)OC)[C@@H]1OC(=O)CCC(=O)N[C@@H](Cc1c[nH]c4ccccc14)C(=O)OC)[C@@H]32 ?
-5.33% (active)

What measured growth goes with Cc1cc(NCCCNc2ccnc3cc(Cl)ccc23)nc(N2CCN(C)CC2)n1 ?
15.7% (inactive)

Would you kindly share the measured growth for COc1cccc(C=Nc2cc(C(C)C)c(O)cc2C)c1O ?
85.9% (inactive)

Return reported growth; argument: O=S(=O)(NCCCNc1cc(-c2cn(-c3ccccc3)nc2-c2cccc(O)c2)ccn1)c1cccc2ccccc12
17.1% (inactive)

So what does the record say about growth for O=C1C2=C(C(=O)c3c(O)ccc(O)c31)N(c1cccnc1)Cc1ccccc1O2 ?
-23.5% (active)

Sample Nc1nc(N)c2c(ccc3c2ccn3Cc2cccc([N+](=O)[O-])c2)n1 — what was its growth?
8.38% (active)
